# test.name: Photocytotoxicity against human NTCC 2544 cell line irradiated with 2.5 J cm^-2 after 72 hrs by MTT assay
# Format: cell-based
# test.conditions: NTCC 2544 cells
Reported GI50 at 72 h values for a set of compounds
Quick note: give the figure in µM, leave out the unit.

Quick check: GI50 at 72 h of O=c1cc(O)c2cccc(C(F)(F)F)c2[nH]1 ?
7.8

Now examine the next entry.
Quick check: GI50 at 72 h of O=c1cc(O)c2ccc(C(F)(F)F)cc2[nH]1 ?
2.5

###

# System: HL-60
# test.name: Photocytotoxicity against human HL60 cell line irradiated with 2.5 J cm^-2 after 72 hrs by MTT assay
# Format: functional
# test.conditions: HL-60, light or radiation study
observable: GI50 (µM)
Quick note: give the figure in µM, leave out the unit.

Answered cases to consult:
Quick check: GI50 of O=c1cc(O)c2cccc(F)c2[nH]1 ?
10

Quick check: GI50 of O=c1cc(O)c2cccc(C(F)(F)F)c2[nH]1 ?
7.3

Quick check: GI50 of O=c1cc(O)c2ccc(F)cc2[nH]1 ?
10

Quick check: GI50 of O=c1cc(O)c2cc(F)ccc2[nH]1 ?
7.8

Now examine the next entry.
Quick check: GI50 of Cc1ccc2c(O)cc(=O)[nH]c2c1 ?
10

###

Reported inhibition at 6.25 µg/mL values for a set of compounds
# Tested on: Mycobacterium tuberculosis
# test.name: Growth inhibition of Mycobacterium tuberculosis at 6.25 ug/ml
# Assay type: functional
Quick note: give the figure in %, leave out the unit.

Answered cases to consult:
Quick check: inhibition at 6.25 µg/mL of Cc1ccc2c(O)cc(=O)[nH]c2c1 ?
54

Quick check: inhibition at 6.25 µg/mL of O=c1cc(O)c2ccc(Cl)cc2[nH]1 ?
2

Quick check: inhibition at 6.25 µg/mL of O=c1cc(O)c2ccc(C(F)(F)F)cc2[nH]1 ?
72

Quick check: inhibition at 6.25 µg/mL of O=c1cc(O)c2ccc(F)cc2[nH]1 ?
52

Quick check: inhibition at 6.25 µg/mL of O=c1cc(O)c2cccc(F)c2[nH]1 ?
50

Others:
Quick check: inhibition at 6.25 µg/mL of NC(=O)c1cnccn1 [PYRAZINAMIDE] ?
100

Quick check: inhibition at 6.25 µg/mL of O=c1cc(O)c2cc(F)ccc2[nH]1 ?
35

Quick check: inhibition at 6.25 µg/mL of O=c1cc(O)c2ccccc2[nH]1 ?
0

Quick check: inhibition at 6.25 µg/mL of O=c1cc(O)c2cccc(C(F)(F)F)c2[nH]1 ?
69

###

# test.name: Photocytotoxicity against human NTCC 2544 cell line irradiated with 1.25 J cm^-2 after 72 hrs by MTT assay
# Format: cell-based
# test.conditions: NTCC 2544 cells
observable: GI50 at 72 h

Answered cases to consult:
Quick check: GI50 at 72 h of O=c1cc(O)c2cccc(C(F)(F)F)c2[nH]1 ?
> 20 µM

Quick check: GI50 at 72 h of O=c1cc(O)c2ccc(C(F)(F)F)cc2[nH]1 ?
7 µM

Others:
Quick check: GI50 at 72 h of O=c1cc(O)c2cc(F)ccc2[nH]1 ?
> 20 µM
